Tested on: U2OS
Assay: Multiplex assay against U2OS
Assay type: toxicity, cell-based
Conditions: human, 12 h, 1 µM, compound concentration 1 uM, replicate 2
Reported Population Fragmented Nuclei (%) is given for each of the following compounds.
Express the result in % but write the number alone.

{"columns": ["COMPOUND", "UOM", "QUANTITATIVE RESULT"],
 "data": [
  ["O=c1cc(N2CCOCC2)oc2c(-c3cccc4c3sc3ccccc34)cccc12", "%", 15],
  ["CCOC(=O)Nc1cc(-c2ccc(C)c(NS(C)(=O)=O)c2)nn2c(C)nnc12", "%", 11],
  ["CCc1nn(CCCN2CCN(c3cccc(Cl)c3)CC2)c(=O)n1CCOc1ccccc1.Cl [NEFAZODONE HYDROCHLORIDE]", "%", 8]
]}

Now take the following compound into account.
Input line: Tell me the measured Population Fragmented Nuclei (%) of `CNC(=O)Nc1ccc2c(c1)[C@@]1(CC2)OC(=O)N(CC(=O)N(Cc2ccc(F)cc2)[C@@H](C)C(F)(F)F)C1=O` , please.
Output line: 7

---

Overview of reported Population Hoechst High Intensity Objects (%) across a group of compounds:
Test system: Fibroblast
Assay: Multiplex assay against human fibroblast
Type: toxicity, cell-based
Conditions: 48 h, 10 µM, compound concentration 10 uM, replicate 2
Give your result in % as a bare value.

{"columns": ["COMPOUND", "QUANTITATIVE RESULT"],
 "data": [
  ["O=c1cc(N2CCOCC2)oc2c(-c3cccc4c3sc3ccccc34)cccc12", 10],
  ["CN1CCN(Cc2ccc(Nc3ncc(Cl)c(Nc4ccccc4S(=O)(=O)N(C)C)n3)cc2)CC1", 16]
]}

Now examine the next entry.
Input line: Enter reported Population Hoechst High Intensity Objects (%) observed with Fibroblast for CCc1nn(CCCN2CCN(c3cccc(Cl)c3)CC2)c(=O)n1CCOc1ccccc1.Cl [NEFAZODONE HYDROCHLORIDE]
Output line: 25

---

Test system: Fibroblast
Test: Multiplex assay against human fibroblast
Type: toxicity, cell-based
Conditions: 12 h, 10 µM, compound concentration 10 uM, replicate 2
Some compounds, each annotated with its measured Population Mitochondria Different-Phenotype (%).

Below, 5 compounds whose answers are already recorded.
{"columns": ["COMPOUND", "RESULT"],
 "data": [
  ["COC(=O)C1=C(C)NC(C)=C(C(=O)OCCCN2CCC(c3ccccc3)(c3ccccc3)CC2)[C@H]1c1cccc([N+](=O)[O-])c1 [NIGULDIPINE]", "50%"],
  ["COc1cc(Nc2nccc(-c3cnn4nc(OC)ccc34)n2)cc(C(F)(F)F)c1", "6%"],
  ["O=c1[nH]c2ccccc2n1C1CCN(Cc2ccc(-c3[nH]c4cc5ncnc5cc4nc3-c3ccccc3)cc2)CC1", "12%"],
  ["Cl.O=C(O)c1cc(-c2ccc(C3CCNCC3)cc2)c2ccc(-c3ccc(C(F)(F)F)cc3)cc2c1", "13%"],
  ["COc1cc2ncn(-c3cc(OCc4ccccc4C(F)(F)F)c(C(N)=O)s3)c2cc1OC [GW843682X]", "88%"]
]}

Input line: Quick one: Population Mitochondria Different-Phenotype (%) of Cc1cccc(CN2CCN(C(c3ccccc3)c3ccc(Cl)cc3)CC2)c1.Cl.Cl (stereo not drawn) ?
Output line: 61%

Input line: Item: CN1CCN(Cc2ccc(Nc3ncc(Cl)c(Nc4ccccc4S(=O)(=O)N(C)C)n3)cc2)CC1 [DUBERMATINIB]
Output line: 38%

Input line: Try the compound `CC(C)OC(=O)N1CCC(Oc2ncnc3c2cnn3-c2ccc(S(C)(=O)=O)cc2F)CC1`
Output line: 5%

---

Test system: U2OS
Assay: Multiplex assay against U2OS
Type: toxicity, cell-based
Settings: human, 24 h, 1 µM, compound concentration 1 uM, replicate 2
So basically: Population Membrane Permeable-Phenotype (%) at 10% or higher? That is TRUE. Lower than 10%? That is FALSE.

{"columns": ["RECORD SMILES", "GROUP LABEL"],
 "data": [
  ["CC(C)CC(=O)Nc1[nH]nc2c1CN(C(=O)C1CCN(C)CC1)C2(C)C", "FALSE"],
  ["C=CC(=O)Nc1cccc(Oc2nc(Nc3ccc(N4CCN(C)CC4)cc3OC)ncc2Cl)c1", "TRUE"],
  ["CCCSc1nc(N[C@@H]2C[C@H]2c2ccc(F)c(F)c2)c2nnn([C@@H]3C[C@H](OCCO)[C@@H](O)[C@H]3O)c2n1", "FALSE"],
  ["C=CC(=O)Nc1cccc(Sc2nc(Nc3ccc(N4CCN(C)CC4)cc3)ncc2Cl)c1", "TRUE"],
  ["CC(C)Oc1ccccc1C(=O)Nc1ccccc1C(=O)Nc1cccc(S(=O)(=O)C(F)(F)F)c1", "TRUE"],
  ["C[C@]12CC[C@@H]3c4ccc(O)cc4CC[C@H]3[C@@H]1CC[C@@H]2O", "FALSE"]
]}

Turning now to a further record.
Input line: Does the reported Population Membrane Permeable-Phenotype (%) for `CC(C)c1noc(N2CCC(COc3ccc(-c4ccc(S(C)(=O)=O)cc4)nc3)CC2)n1` fall at or above the 10% mark?
Output line: FALSE

---

Test system: U2OS
Experiment: Incucyte cell viability with U2OS; also: filed as whole numbers so only -1 and 0 and 1 occur
Assay type: toxicity, cell-based
Conditions: human, 24 h, 10 µM, compound concentration 10 uM, replicate number 2, timepoint 24 hours
Catalogue of Growth Rate values
Kindly provide the number alone.

Answered cases to consult:
{"columns": ["COMPOUND", "Growth Rate"],
 "data": [
  ["Cc1cccc(CN2CCN(C(c3ccccc3)c3ccc(Cl)cc3)CC2)c1.Cl.Cl (stereo not drawn)", 0],
  ["CC(C)OC(=O)N1CCC(Oc2ncnc3c2cnn3-c2ccc(S(C)(=O)=O)cc2F)CC1", 0],
  ["COc1ccc(S(=O)(=O)N2c3ccc(Cl)cc3[C@](O)(c3ccccc3Cl)[C@@H]2C(=O)N2CCC[C@H]2C(N)=O)cc1OC [RELCOVAPTAN]", 1],
  ["O=C([O-])c1cc2ccccc2c(Cc2c(O)c(C(=O)[O-])cc3ccccc23)c1O.[Na+].[Na+]", 1],
  ["Nc1ncnc2c1ccn2[C@@H]1O[C@H]([C@H](O)c2ccccc2)[C@@H](O)[C@H]1O", 1]
]}

Input line: Given `O=C(O)C1CN(Cc2ccc(-c3nc4cc(Cc5ccccc5F)ccc4s3)c(F)c2)C1` , state its recorded Growth Rate.
Output line: 0

Input line: Next entry: `O=c1[nH]c2ccccc2n1C1CCN(Cc2ccc(-c3[nH]c4cc5ncnc5cc4nc3-c3ccccc3)cc2)CC1`
Output line: 1

Input line: Subsequent entry: `O=C1CCc2cc(Nc3cc(OC4CCOCC4)c([N+](=O)[O-])cc3Cl)ccc2N1`
Output line: 1

Input line: One more compound: `C[C@H](NC[C@H](O)CP(=O)(O)CC1CCCCC1)c1ccc(Cl)c(Cl)c1.Cl`
Output line: 0

Input line: Ok, now `CC(C)Oc1ccc(-c2c[nH]cc2CN(C)CCN)cc1`
Output line: 1

Input line: Please do the same for `Cc1csc(NC(=O)c2cc(F)cc(Oc3cncnc3)c2)n1` as well.
Output line: 1

Input line: Could you do the same for `O=C(N[C@@H](C1CC1)C(F)(F)F)c1cc(-c2cnn3cc(-c4ccc(F)cc4)cnc23)cs1` , please?
Output line: 0

Input line: Follow-up item: C=CC(=O)Nc1ccc2[nH]c(=O)n(C3CCN(Cc4ccc(-c5nc6cc[nH]c(=O)c6cc5-c5ccccc5)cc4)CC3)c2c1 [Borussertib]
Output line: 0

Input line: Ok, now `CCOC(=O)CCNc1cc(N2CCc3ccccc3CC2)nc(-c2cccnc2)n1`
Output line: 0

Input line: // next record CC#CC(=O)N1CCC[C@H]1c1nc(-c2ccc(C(=O)Nc3ccccn3)cc2)c2c(N)nccn12 [ACALABRUTINIB]
Output line: 0

Input line: Another compound: Cc1cc(-n2nc(Cc3cc(F)cc(C(F)(F)F)c3)nc2C)ccc1C(N)=O [TP-024]
Output line: 1

Input line: Could you do the same for CNC(=O)Nc1ccc2c(c1)[C@@]1(CC2)OC(=O)N(CC(=O)N(Cc2ccc(F)cc2)[C@@H](C)C(F)(F)F)C1=O [A-486] , please?
Output line: 1

Input line: Request: `O=C(Cc1ccccc1)Nc1nc2ccc(Cl)cc2c2nc(-c3ccco3)nn12`
Output line: 0

---

The reader will find reported Total Cell Count values listed item by item below.
Tested on: HEK-293T
Assay: Multiplex assay against HEK293T
Assay type: toxicity, cell-based
Conditions: human, 24 h, 1 µM, compound concentration 1 uM, replicate 1
# output: bare number, no unit

{"columns": ["COMPOUND", "EXPERIMENTAL TARGET", "QUANTITATIVE RESULT"],
 "data": [
  ["C=CC(=O)Nc1cccc(Sc2nc(Nc3ccc(N4CCN(C)CC4)cc3)ncc2Cl)c1", "HEK-293T", 683]
]}

Input line: I am curious: what Total Cell Count value has been reported for CC(C)c1noc(N2CCC(COc3ccc(-c4ccc(S(C)(=O)=O)cc4)nc3)CC2)n1 [GSK-1292263] ?
Output line: 316

Input line: Subsequent entry: CC(C)CC(=O)Nc1[nH]nc2c1CN(C(=O)C1CCN(C)CC1)C2(C)C [PHA-793887]
Output line: 638

Input line: What about Cc1c[nH]c2nccc(Oc3c(F)cc(Nc4cc(Cl)nc(N)n4)cc3F)c12 [BAY-549] ?
Output line: 284

Input line: Entry C=CC(=O)Nc1ccc2[nH]c(=O)n(C3CCN(Cc4ccc(-c5nc6cc[nH]c(=O)c6cc5-c5ccccc5)cc4)CC3)c2c1 [Borussertib] please
Output line: 716

Where do these numbers come from? They come from ChEMBL document CHEMBL4689842.
